Listing of entries alongside the reported TGI.
system: NCI-H23 lung; assay: NCI tumour cell line growth inhibition, 48 h

# molecule, tested on, reported measurement
data = [
    ("CN(C(=O)c1ccc(C(F)(F)F)cc1)c1ccc(Oc2ccc3c(c2)cc(C(=O)N2CCN(Cc4ccc(OC(F)F)cc4)CC2)n3C)nc1", "NCI-H23 lung", "> 100 µM"),
    ("CCOC(=O)C(=C=C=C(c1ccccc1)c1ccccc1)C(=O)OCC", "NCI-H23 lung", "> 100 µM"),
    ("O=c1[nH]c(Nc2nc3ccccc3[nH]2)nc(O)c1-c1ccccc1", "NCI-H23 lung", "> 100 µM"),
    ("CC(=O)OC1COC(n2ccc3cc(Br)c([N+](=O)[O-])cc32)C(OC(C)=O)C1OC(C)=O (stereo unspecified)", "NCI-H23 lung", "61.3 µM"),
    ("CCOC(=O)CC(=O)ON(C)C(C)=O", "NCI-H23 lung", "> 100 µM"),
]

State its TGI: CN(C)c1ccc(S(=O)Nc2ccccc2)cc1 (stereo unspecified)
> 100 µM

State its TGI: "O=C1c2ccccc2-c2c1c(-c1ccc(F)cc1)nc1ccc3ccccc3c21"
> 100 µM

State its TGI: "CC(=N/N=C/c1ccccn1)/C(C)=N/N=C(C)/C(C)=N/N=C(C)/C(C)=N/N=C(C)/C(C)=N\N=C\c1ccccn1"
> 100 µM

State its TGI: "COc1cc(NCc2ccc3oc(=O)c(-c4ccccc4)nc3c2)cc(OC)c1OC"
> 10 µM

State its TGI: "CCN1CCN(c2nc(C)cc(N(CCNc3ccnc4cc(Cl)ccc34)Cc3ccc4c(c3)OCO4)n2)CC1"
14.2 µM

###

Listing of entries alongside the reported TGI.
tested on: IGROV1 ovarian; experiment: NCI tumour cell line growth inhibition, 48 h
State the answer as a number, implicitly in µM.

Some solved cases for reference:
# smiles notation, reported measurement
measured = [
    ("N#Cc1c(-c2ccccc2)/c(=C\\Nc2ccc(F)cc2)c(=O)n2c1nc1ccccc12", 87.3),
    ("Cc1ccc(S(=O)(=O)N/N=C/C2(c3ccccc3)c3ccccc3-c3ccccc32)cc1", 23.5),
    ("COc1ccc2c(c1)/C(=C\\c1c(Cl)nc3sc(C)cn13)C(=O)N2", 16.7),
]

Please examine the following record next.
State its TGI: "COc1ccc(-c2nnc(COc3ccc(NC(=O)Nc4cc(C(F)(F)F)cc(C(F)(F)F)c4)cc3F)o2)cc1"
10.9

###

tested on: SF-268 CNS; experiment: NCI tumour cell line growth inhibition, 48 h
observable: TGI (µM)
State the answer as a number, implicitly in µM.

# compound, observable, reported measurement
data = [
    ("Clc1ccc(C(c2ccc(Cl)cc2)c2ccccn2)cc1", "TGI", 69.7),
    ("CC1OC(OC2C(OC(=O)[C@]34CCC(C)(C)C[C@H]3C3=CC[C@@H]5[C@@]6(C)CC[C@H](OC7OC(C(=O)O)C(O)C(O)C7O)C(C)(C)[C@@H]6CC[C@@]5(C)[C@]3(C)C[C@H]4O)OCC(O)C2O)C(O)C(OC2OCC(O)(CO)C2O)C1OC1OCC(O)C(O)C1O (some centres not stated)", "TGI", 33.7),
    ("COc1ccc(NC(=O)CC(=O)N2N=C(N3c4ccccc4Sc4ccccc43)CC2c2ccccc2)cc1 (configuration not stated)", "TGI", 82.9),
]

State its TGI: "COc1cc2c3c(n(C)c(=O)c2cc1OC)-c1cc2c(cc1/C3=C\CCCN)OCO2"
66.9
